measured_target: his-galectin-3 (Homo sapiens)
Construct: purchased Abcam
Sequence (P17931 whole entry): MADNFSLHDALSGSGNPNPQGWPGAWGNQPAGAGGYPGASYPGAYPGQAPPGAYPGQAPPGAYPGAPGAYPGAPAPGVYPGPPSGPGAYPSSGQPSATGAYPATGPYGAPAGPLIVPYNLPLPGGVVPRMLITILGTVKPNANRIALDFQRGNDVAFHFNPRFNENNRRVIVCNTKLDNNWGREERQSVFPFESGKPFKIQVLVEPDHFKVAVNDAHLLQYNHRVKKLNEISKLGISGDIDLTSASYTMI
assay_explanation: TR-FRET assay (in vitro galectin-3 binding inhibitory activity test)
condition_info: Table 3, found values; compound at 20 μM; 60 nM his-galectin-3, 15 nM biotin-ASF; read-out: % Inhibitory activity (at 20 μM)
Entries and their inhibition at 20 µM
The figure you give is taken to be in %; do not add the unit.

Example cases with answers are listed next.
| compound | inhibition at 20 µM / % |
| --- | --- |
| OC[C@H]1O[C@@]2(CCCN(c3ccc(Cl)cc3)C2)[C@H](O)[C@@H](n2cc(-c3cc(F)c(F)c(F)c3)nn2)[C@H]1O [Compound A224] | 24.2 |
| OC[C@H]1O[C@@]2(CCCN(c3ccccc3)C2)[C@H](O)[C@@H](n2cc(-c3cc(F)c(F)c(F)c3)nn2)[C@H]1O [Compound A191] | 24 |

Query: Given O=C(Cc1ccccc1Cl)N[C@@H]1CCO[C@]12O[C@H](CO)[C@H](O)[C@H](n1cc(-c3cc(F)c(F)c(F)c3)nn1)[C@H]2O [Compound A112] , state its recorded inhibition at 20 µM.
Result: 53.8

Query: Given COC(=O)CO[C@@H]1[C@@H](n2cc(-c3cc(F)c(F)c(F)c3)nn2)[C@@H](O)[C@@H](CO)O[C@@]12CCCCO2 [Compound A32] , state its recorded inhibition at 20 µM.
Result: 36.7

Query: Given O=C(N[C@@H]1CCO[C@]12O[C@H](CO)[C@H](O)[C@H](n1cc(-c3cc(F)c(F)c(F)c3)nn1)[C@H]2O)c1ccc(F)c2ccccc12 [Compound A170] , state its recorded inhibition at 20 µM.
Result: 85.3

Query: Given O=C(N[C@@H]1CCO[C@]12O[C@H](CO)[C@H](O)[C@H](n1cc(-c3cc(F)c(F)c(F)c3)nn1)[C@H]2O)c1nsc2ccccc12 [Compound A182] , state its recorded inhibition at 20 µM.
Result: 73

Query: Given O=C(N[C@@H]1CCO[C@]12O[C@H](CO)[C@H](O)[C@H](n1cc(-c3cc(F)c(F)c(F)c3)nn1)[C@H]2O)c1cccc2occc12 [Compound A230] , state its recorded inhibition at 20 µM.
Result: 66.5

Query: Given O=C(N[C@@H]1CCO[C@]12O[C@H](CO)[C@H](O)[C@H](n1cc(-c3cc(F)c(F)c(F)c3)nn1)[C@H]2O)c1csc2ccc(F)cc12 [Compound A249] , state its recorded inhibition at 20 µM.
Result: 89.9

Query: Given OC[C@H]1O[C@]2(CCCO2)[C@H](O)[C@@H](n2cc(-c3cc(F)c(F)c(F)c3)nn2)[C@H]1O [Compound A100] , state its recorded inhibition at 20 µM.
Result: 48.1

Query: Given O=C(N[C@@H]1CCO[C@]12O[C@H](CO)[C@H](O)[C@H](n1cc(-c3cc(F)c(F)c(F)c3)nn1)[C@H]2O)c1cccc2c1CCC2 [Compound A162] , state its recorded inhibition at 20 µM.
Result: 69.9

Ref: patent US20250026778A1
